Test system: Pseudomonas aeruginosa Strain No. L 1348
experiment-notes: MIC against multi-resistant clinical isolates of Pseudomonas aeruginosa
Assay type: cell-based
particulars: multi-resistant clinical isolate
I'd be grateful if you could share measured MIC Pseudomonas aeruginosa L 1348 for these entries.
One number for each entry, in microgram/ml.

For orientation, consider the following solved cases.
{"compound": "NCCCNCCCNC(=O)C1NC(=O)C2NC(=O)C(NC(=O)C3NC(=O)C4NC(=O)C(Cc5ccc(c(Cl)c5)Oc5cc3cc(c5O)Oc3ccc(cc3Cl)C2O)NC(=O)C(N)c2ccc(O)c(c2)Oc2cc(O)cc4c2)c2ccc(O)c(c2)-c2c(O)cc(O)cc21 (centres unmarked)", "reading": 4}
{"compound": "NCCCNCCCNCCCNC(=O)C1NC(=O)C2NC(=O)C(NC(=O)C3NC(=O)C4NC(=O)C(Cc5ccc(c(Cl)c5)Oc5cc3cc(c5O)Oc3ccc(cc3Cl)C2O)NC(=O)C(N)c2ccc(O)c(c2)Oc2cc(O)cc4c2)c2ccc(O)c(c2)-c2c(O)cc(O)cc21 (centres unmarked)", "reading": 4}
{"compound": "NCCN(CCN)CCNC(=O)C1NC(=O)C2NC(=O)C(NC(=O)C3NC(=O)C4NC(=O)C(Cc5ccc(c(Cl)c5)Oc5cc3cc(c5O)Oc3ccc(cc3Cl)C2O)NC(=O)C(N)c2ccc(O)c(c2)Oc2cc(O)cc4c2)c2ccc(O)c(c2)-c2c(O)cc(O)cc21 (centres unmarked)", "reading": 8}
{"compound": "NCCCNCCNCCCNC(=O)C1NC(=O)C2NC(=O)C(NC(=O)C3NC(=O)C4NC(=O)C(Cc5ccc(c(Cl)c5)Oc5cc3cc(c5O)Oc3ccc(cc3Cl)C2O)NC(=O)C(N)c2ccc(O)c(c2)Oc2cc(O)cc4c2)c2ccc(O)c(c2)-c2c(O)cc(O)cc21 (centres unmarked)", "reading": 4}

Input: Endpoint output: MIC Pseudomonas aeruginosa L 1348 of NCCCNCCCCNCCCNC(=O)C1NC(=O)C2NC(=O)C(NC(=O)C3NC(=O)C4NC(=O)C(Cc5ccc(c(Cl)c5)Oc5cc3cc(c5O)Oc3ccc(cc3Cl)C2O)NC(=O)C(N)c2ccc(O)c(c2)Oc2cc(O)cc4c2)c2ccc(O)c(c2)-c2c(O)cc(O)cc21 (centres unmarked) . Value?
Output: 4

* * *

System: Proteus vulgaris X19H ATCC 881
experiment-notes: In vitro MIC, two-fold dilution in microtiter
Type: cell-based
particulars: 18-24 h at 37° C., inoculum about 10^4 CFU/ml
observable: MIC Proteus vulgaris X19H ATCC 881

For orientation, consider the following solved cases.
{"compound": "NCCCN1CCN(CCCNC(=O)C2NC(=O)C3NC(=O)C(NC(=O)C4NC(=O)C5NC(=O)C(Cc6ccc(c(Cl)c6)Oc6cc4cc(c6O)Oc4ccc(cc4Cl)C3O)NC(=O)C(N)c3ccc(O)c(c3)Oc3cc(O)cc5c3)c3ccc(O)c(c3)-c3c(O)cc(O)cc32)CC1 (stereo not shown) [Compound 30]", "assay-system": "Proteus vulgaris X19H ATCC 881", "MIC Proteus vulgaris X19H ATCC 881": "128 microgram/ml"}
{"compound": "NCCCNCCCCCCCCCCNCCCNC(=O)C1NC(=O)C2NC(=O)C(NC(=O)C3NC(=O)C4NC(=O)C(Cc5ccc(c(Cl)c5)Oc5cc3cc(c5O)Oc3ccc(cc3Cl)C2O)NC(=O)C(N)c2ccc(O)c(c2)Oc2cc(O)cc4c2)c2ccc(O)c(c2)-c2c(O)cc(O)cc21 (stereo not shown) [Compound 55]", "assay-system": "Proteus vulgaris X19H ATCC 881", "MIC Proteus vulgaris X19H ATCC 881": "> 128 microgram/ml"}
{"compound": "NCCNCCCNCCNC(=O)C1NC(=O)C2NC(=O)C(NC(=O)C3NC(=O)C4NC(=O)C(Cc5ccc(c(Cl)c5)Oc5cc3cc(c5O)Oc3ccc(cc3Cl)C2O)NC(=O)C(N)c2ccc(O)c(c2)Oc2cc(O)cc4c2)c2ccc(O)c(c2)-c2c(O)cc(O)cc21 (stereo not shown) [Compound 24]", "assay-system": "Proteus vulgaris X19H ATCC 881", "MIC Proteus vulgaris X19H ATCC 881": "128 microgram/ml"}

// below: MIC Proteus vulgaris X19H ATCC 881 requested for another compound
Input: Endpoint output: MIC Proteus vulgaris X19H ATCC 881 of CC(=O)N[C@H]1[C@H](OC2c3ccc(c(Cl)c3)Oc3cc4cc(c3O)Oc3ccc(cc3Cl)CC3NC(=O)C(N)c5ccc(O)c(c5)Oc5cc(O)cc(c5)C(NC3=O)C(=O)NC4C(=O)NC3C(=O)NC2C(=O)NC(C(=O)NCCCNCCCCNCCCN)c2cc(O)cc(O[C@H]4O[C@H](CO)[C@@H](O)[C@H](O)[C@@H]4O)c2-c2cc3ccc2O)O[C@H](CO)[C@@H](O)[C@@H]1O (stereo partly shown) [Compound 39] . Value?
Output: > 128 microgram/ml

* * *

I'd be grateful if you could share measured MIC Staphylococcus epidermidis ATCC 12228 for these entries.
System: Staphylococcus epidermidis ATCC 12228
experiment-notes: In vitro MIC, two-fold dilution in microtiter
Type: cell-based
particulars: 18-24 h at 37° C., inoculum about 10^4 CFU/ml
Numbers only, in microgram/ml.

{"molecule": "CN(C)CCCN1CCN(C(=O)C2NC(=O)C3NC(=O)C(NC(=O)C4NC(=O)C5NC(=O)C(Cc6ccc(c(Cl)c6)Oc6cc4cc(c6O)Oc4ccc(cc4Cl)C3O)NC(=O)C(N)c3ccc(O)c(c3)Oc3cc(O)cc5c3)c3ccc(O)c(c3)-c3c(O)cc(O)cc32)CC1 (stereo not drawn) [Compound 53]", "value-units": "microgram/ml", "reading": 0.06}
{"molecule": "NCCCNCCCNC(=O)C1NC(=O)C2NC(=O)C(NC(=O)C3NC(=O)C4NC(=O)C(Cc5ccc(c(Cl)c5)Oc5cc3cc(c5O)Oc3ccc(cc3Cl)C2O)NC(=O)C(N)c2ccc(O)c(c2)Oc2cc(O)cc4c2)c2ccc(O)c(c2)-c2c(O)cc(O)cc21 (stereo not drawn) [Compound 22]", "value-units": "microgram/ml", "reading": 0.03}

// below: MIC Staphylococcus epidermidis ATCC 12228 requested for another molecule
Input: Endpoint output: MIC Staphylococcus epidermidis ATCC 12228 of CC(=O)NC1C(OC2c3ccc(c(Cl)c3)Oc3cc4cc(c3OC3OC(CO)C(O)C(O)C3NC(=O)CCCCCCC(C)C)Oc3ccc(cc3Cl)CC3NC(=O)C(N)c5ccc(O)c(c5)Oc5cc(O)cc(c5)C(NC3=O)C(=O)NC4C(=O)NC3C(=O)NC2C(=O)NC(C(=O)NCCCNCCCCNCCCN)c2cc(O)cc(OC4OC(CO)C(O)C(O)C4O)c2-c2cc3ccc2O)OC(CO)C(O)C1O (stereo not drawn) [Compound 11] . Value?
Output: 0.06

* * *

Test system: Proteus vulgaris X19H ATCC 881
experiment-notes: In vitro MIC, two-fold dilution in microtiter
Assay type: cell-based
particulars: 18-24 h at 37° C., inoculum about 10^4 CFU/ml
I'd be grateful if you could share measured MIC Proteus vulgaris X19H ATCC 881 for these entries.
Answers are plain numbers, in microgram/ml.

For orientation, consider the following solved cases.
{"compound": "NCCCNCCCCNCCCNC(=O)C1NC(=O)C2NC(=O)C(NC(=O)C3NC(=O)C4NC(=O)C(Cc5ccc(c(Cl)c5)Oc5cc3cc(c5O)Oc3ccc(cc3Cl)C2O)NC(=O)C(N)c2ccc(O)c(c2)Oc2cc(O)cc4c2)c2ccc(O)c(c2)-c2c(O)cc(O)cc21 (stereo not shown)", "value-units": "microgram/ml", "MIC Proteus vulgaris X19H ATCC 881": 64}
{"compound": "NCCCNCCCNC(=O)C1NC(=O)C2NC(=O)C(NC(=O)C3NC(=O)C4NC(=O)C(Cc5ccc(c(Cl)c5)Oc5cc3cc(c5O)Oc3ccc(cc3Cl)C2O)NC(=O)C(N)c2ccc(O)c(c2)Oc2cc(O)cc4c2)c2ccc(O)c(c2)-c2c(O)cc(O)cc21 (stereo not shown)", "value-units": "microgram/ml", "MIC Proteus vulgaris X19H ATCC 881": 32}

// below: MIC Proteus vulgaris X19H ATCC 881 requested for another compound
Input: Endpoint output: MIC Proteus vulgaris X19H ATCC 881 of NCCN(CCN)CCNC(=O)C1NC(=O)C2NC(=O)C(NC(=O)C3NC(=O)C4NC(=O)C(Cc5ccc(c(Cl)c5)Oc5cc3cc(c5O)Oc3ccc(cc3Cl)C2O)NC(=O)C(N)c2ccc(O)c(c2)Oc2cc(O)cc4c2)c2ccc(O)c(c2)-c2c(O)cc(O)cc21 (stereo not shown) . Value?
Output: 32

* * *

System: Proteus vulgaris X19H ATCC 881
experiment-notes: In vitro MIC, two-fold dilution in microtiter
Type: cell-based
particulars: 18-24 h at 37° C., inoculum about 10^4 CFU/ml
observable: MIC Proteus vulgaris X19H ATCC 881 (microgram/ml)
Answers are plain numbers, in microgram/ml.

{"compound": "NCCCNCCCNCCCNC(=O)C1NC(=O)C2NC(=O)C(NC(=O)C3NC(=O)C4NC(=O)C(Cc5ccc(c(Cl)c5)Oc5cc3cc(c5O)Oc3ccc(cc3Cl)C2O)NC(=O)C(N)c2ccc(O)c(c2)Oc2cc(O)cc4c2)c2ccc(O)c(c2)-c2c(O)cc(O)cc21 (centres unmarked)", "assay-system": "Proteus vulgaris X19H ATCC 881", "observable": "MIC Proteus vulgaris X19H ATCC 881", "value-units": "microgram/ml", "reading": 64}

// below: MIC Proteus vulgaris X19H ATCC 881 requested for another compound
Input: Endpoint output: MIC Proteus vulgaris X19H ATCC 881 of CN(C)CCCN(CCCN)CCCNC(=O)C1NC(=O)C2NC(=O)C(NC(=O)C3NC(=O)C4NC(=O)C(Cc5ccc(c(Cl)c5)Oc5cc3cc(c5O)Oc3ccc(cc3Cl)C2O)NC(=O)C(N)c2ccc(O)c(c2)Oc2cc(O)cc4c2)c2ccc(O)c(c2)-c2c(O)cc(O)cc21 (centres unmarked) . Value?
Output: 128
